# System Under Test: D1 (Homo sapiens, UniProt P21728)
# Construct: Psychoactive Drug Screening Program (PDSP)
# Sequence (P21728 whole entry): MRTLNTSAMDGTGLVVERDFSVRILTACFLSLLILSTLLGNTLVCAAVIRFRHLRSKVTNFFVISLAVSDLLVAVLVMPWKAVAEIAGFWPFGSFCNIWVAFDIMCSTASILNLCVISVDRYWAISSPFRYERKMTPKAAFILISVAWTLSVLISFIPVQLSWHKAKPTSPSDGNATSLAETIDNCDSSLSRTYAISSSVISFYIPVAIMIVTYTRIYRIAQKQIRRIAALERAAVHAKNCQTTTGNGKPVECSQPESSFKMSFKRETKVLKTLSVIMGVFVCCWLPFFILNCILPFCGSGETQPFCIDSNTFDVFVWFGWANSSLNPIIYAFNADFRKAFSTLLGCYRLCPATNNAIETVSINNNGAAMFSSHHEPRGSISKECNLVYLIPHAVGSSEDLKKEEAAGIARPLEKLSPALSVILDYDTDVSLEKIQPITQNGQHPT
# Test Method Notes: PDSP primary screen and secondary assay, D1
# Assay type: binding
# Condition Details: 10 µM compound
Reported inhibition at 10 µM values for the following compounds.
Answer format: number, then unit.

Answered cases to consult:
# Chem Smiles, inhibition at 10 µM
measured = [
    ("Cc1cccc(-n2cc(CN3CCC(c4ccccc4)CC3)nn2)c1", "20.2%"),
    ("Cc1cccc(-n2cc(CN3CCN(c4cccc5ccccc45)CC3)nn2)c1", "59.3%"),
    ("Cc1cccc(-n2cc(CN3CCN(c4ccccn4)CC3)nn2)c1", "2.16%"),
]

Here is the next item to consider.
Request: Value lookup for inhibition at 10 µM; key = Cc1cccc(-n2cc(CN3CCN(c4ccc(Cl)cn4)CC3)nn2)c1
Result: 16.7%
